Experimental Details: Stability of 2A in cell culture (HEK293), LCMS
Type: in vitro ADME
Conditions: human, HEK293 cells in culture, HEK293 cells 20,000 cells/well, Opti-MEM reduced serum media, peptide 9 μM, 60 min, mean ± SEM, read-out: amount remaining in the medium of HEK293 cells at T60 min compared with T0 min
Peptide text beside a SMILES is read from it.

# Compound, remaining at 1 h, 9 μM
rows = [
    ("CC[C@H](C)[C@H](NC(=O)[C@H](CCSC)NC(=O)[C@H](CCCCN)NC(=O)CNC(=O)[C@H](CC(C)C)NC(=O)[C@H](CCC(=O)O)NC(=O)[C@H](Cc1ccccc1)NC(=O)[C@H](CC(C)C)NC(=O)[C@@H](N)CO)C(=O)N[C@@H](CC(C)C)C(=O)O [non-amidated 2A] (H-SLFELGKMIL-OH; N-terminus assumed)", "29%"),
    ("CC[C@H](C)[C@H](NC(=O)[C@H](CCSC)NC(=O)[C@H](CCCCN)NC(=O)CNC(=O)[C@H](CC(C)C)NC(=O)[C@H](CCC(=O)O)NC(=O)[C@H](Cc1ccccc1)NC(=O)[C@H](CC(C)C)NC(=O)[C@@H](N)CO)C(=O)N[C@@H](CC(C)C)C(N)=O [2A] (H-SLFELGKMIL-NH2)", "54%"),
]

Cited source for all entries: paper PMC10104254
